EXPERIMENTAL SYSTEM: recombinant HDAC-1 (Homo sapiens, UniProt Q13547)
Sequence (Q13547 whole entry, species assumed): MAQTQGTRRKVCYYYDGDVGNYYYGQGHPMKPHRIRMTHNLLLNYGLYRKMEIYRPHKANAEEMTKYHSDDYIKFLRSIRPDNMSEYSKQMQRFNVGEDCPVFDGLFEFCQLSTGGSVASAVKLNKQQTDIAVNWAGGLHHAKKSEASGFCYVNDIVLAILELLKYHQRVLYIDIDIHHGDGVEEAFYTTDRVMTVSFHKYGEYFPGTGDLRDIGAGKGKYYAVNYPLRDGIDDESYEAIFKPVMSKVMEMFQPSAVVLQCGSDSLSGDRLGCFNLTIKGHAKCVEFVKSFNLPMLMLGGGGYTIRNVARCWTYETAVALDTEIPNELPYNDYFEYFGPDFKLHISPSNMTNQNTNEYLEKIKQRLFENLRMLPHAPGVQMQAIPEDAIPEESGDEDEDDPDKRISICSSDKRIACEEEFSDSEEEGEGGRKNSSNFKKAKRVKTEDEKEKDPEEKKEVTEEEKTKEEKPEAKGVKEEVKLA
ASSAY METHOD TEXT: HDAC biochemical quench assay
EXPERIMENTAL CONDITIONS: recombinant HDAC-1 purified from HEK 293 cells; 1 μM peptide substrate, 90 min at room temperature
pIC50: −log10 of the molar value.
Reported pIC50 values follow for various compounds

[
  {
    "COMPOUND": "CSc1ccc(C(C)NC(=O)c2ccc(C(=O)NO)s2)cc1 (centres unmarked) [Example 2-3]",
    "pIC50": 8.65
  },
  {
    "COMPOUND": "CC(NC(=O)c1ccc(C(=O)NO)s1)c1ccc(OC(F)(F)F)cc1 (centres unmarked) [Example 2-1]",
    "pIC50": 8.51
  }
]
